study.target: recombinant Icl (isocitrate lyase) (Mycobacterium tuberculosis, UniProt P9WKK7)
Sequence (P9WKK7 whole entry): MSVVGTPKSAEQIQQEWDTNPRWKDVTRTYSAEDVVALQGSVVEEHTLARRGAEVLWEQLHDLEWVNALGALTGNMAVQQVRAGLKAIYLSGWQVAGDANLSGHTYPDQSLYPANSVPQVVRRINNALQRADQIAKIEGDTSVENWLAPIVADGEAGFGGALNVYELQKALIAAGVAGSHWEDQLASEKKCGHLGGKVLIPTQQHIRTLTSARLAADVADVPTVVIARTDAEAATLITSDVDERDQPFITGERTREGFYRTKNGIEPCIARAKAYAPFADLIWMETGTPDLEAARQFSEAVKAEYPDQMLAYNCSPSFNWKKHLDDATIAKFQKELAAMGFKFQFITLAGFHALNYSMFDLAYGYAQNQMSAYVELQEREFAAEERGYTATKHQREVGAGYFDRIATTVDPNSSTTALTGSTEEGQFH
experimental.protocol: biochemical
condition: read-out: inhibition constants
Hi there, I'd appreciate the recorded pKi for every entry that follows.
Numbers only, as −log10 of the molar value.

Here is how some compounds turned out for pKi.
>>> df
                                   compound  observed_property  numeric_value
0      C=C1CC(=O)OC1=O [itaconic anhydride]                pKi           3.72
1  O=C(O)C(=O)CBr [bromopyruvate, 3-bromopyruvate]                pKi           3.92
2            C=C(CC(=O)O)C(=O)O [Itaconate]                pKi           3.92

Checklist item: pKi tested on recombinant Icl (isocitrate lyase) (Mycobacterium tuberculosis, UniProt P9WKK7), entry O=C(O)CC[N+](=O)[O-] [3-nitropropionate] , value?
5.52
